Hey, just so you know, these numbers are from ChEMBL document CHEMBL3885861.

- Organism: Rattus norvegicus
- experiment.summary: Open TG-GATES - Regimen: Single
- Assay type: toxicity, organism-based, Sprague-Dawley
- Set-up: regimen Single, gender Male, age 6 weeks
- experimental.parameters: in vivo, po, 1000 mg/kg, 9 h, tissue Plasma, route gavage, dose level High
The entries below are paired with their reported Na.
Just the number please, in meq/L, no unit attached.

INSERT INTO results (compound, unit_of_measure, result_value) VALUES
  ('O=C(O)c1cc(/N=N/c2ccc(S(=O)(=O)Nc3ccccn3)cc2)ccc1O', 'meq/L', 141.4),
  ('CCc1cc(C(N)=S)ccn1 [ETHIONAMIDE]', 'meq/L', 140.6),
  ('Clc1ccccc1CN1CCc2sccc2C1', 'meq/L', 142.4),
  ('C[C@H](CS)C(=O)N1CCC[C@H]1C(=O)O', 'meq/L', 140);

Exam item: Give reported Na value for O=C(O)c1cn(C2CC2)c2cc(N3CCNCC3)c(F)cc2c1=O
Marked response: 139
